Let's look at some compounds and their measured AC50.
target: human CYP2C19 (Homo sapiens, UniProt P33261); test: biochemical
Sequence (P33261 whole entry): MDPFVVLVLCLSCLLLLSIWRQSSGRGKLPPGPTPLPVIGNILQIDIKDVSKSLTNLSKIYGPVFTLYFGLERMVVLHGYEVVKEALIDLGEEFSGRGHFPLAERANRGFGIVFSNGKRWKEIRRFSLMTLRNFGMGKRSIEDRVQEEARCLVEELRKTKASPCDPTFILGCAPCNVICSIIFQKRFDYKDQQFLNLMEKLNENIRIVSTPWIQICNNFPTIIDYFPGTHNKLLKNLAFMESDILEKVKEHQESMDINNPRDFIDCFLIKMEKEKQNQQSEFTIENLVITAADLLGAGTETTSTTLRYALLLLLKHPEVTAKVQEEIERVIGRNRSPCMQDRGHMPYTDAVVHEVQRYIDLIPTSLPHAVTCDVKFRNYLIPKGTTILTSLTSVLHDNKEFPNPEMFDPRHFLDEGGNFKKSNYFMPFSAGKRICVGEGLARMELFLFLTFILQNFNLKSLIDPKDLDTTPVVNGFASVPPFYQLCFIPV
Counter-ions that a name gives are not always drawn.
Give your result in µM as a bare value.

Below are worked cases with known answers.
>  <COMPOUND>
CCOC(=O)Cc1cccc2ccccc12 [Ethyl 1-naphthaleneacetate]

>  <SYSTEM_TESTED>
human CYP2C19 (Homo sapiens, UniProt P33261)

>  <VALUE_MEASURED>
25.5

$$$$
>  <COMPOUND>
CC(C)(C)c1cccc(O)c1

>  <SYSTEM_TESTED>
human CYP2C19 (Homo sapiens, UniProt P33261)

>  <VALUE_MEASURED>
23.9

$$$$
>  <COMPOUND>
CCCCCCCCOS(=O)(=O)O [Sodium octyl sulfate]

>  <SYSTEM_TESTED>
human CYP2C19 (Homo sapiens, UniProt P33261)

>  <VALUE_MEASURED>
52.3

$$$$

Looking for the measured AC50 of CCC1OCC(COc2ccc(Oc3ccccc3)cc2)O1 (centres unmarked) , can you help?
21

One more compound: O=C1c2ccccc2C(=O)c2c(Cl)cccc21
13.9

* * *

This document collects CYP2D6 AC50 (half-maximal activity concentration) values reported for human CYP2D6 (Homo sapiens, UniProt P10635).

Below are worked cases with known answers.
>  <MOLECULE>
O=C(/C=C/c1ccccc1)OCc1ccccc1 [Benzyl cinnamate]

>  <VALUE_MEASURED>
Inactive

$$$$
>  <MOLECULE>
CCCCCCCCCC(C)C=O (stereo not shown)

>  <VALUE_MEASURED>
Inactive

$$$$
>  <MOLECULE>
CC(=O)OCC(=O)[C@@]12N=C(C)O[C@@H]1C[C@H]1[C@@H]3CCC4=CC(=O)C=C[C@]4(C)[C@H]3[C@@H](O)C[C@@]12C

>  <VALUE_MEASURED>
Inactive

$$$$
>  <MOLECULE>
CC(=O)c1cc2ccccc2s1 [2-Acetylbenzo[b]thiophene]

>  <VALUE_MEASURED>
Inactive

$$$$
>  <MOLECULE>
O=C(Cl)c1ccc(F)c(Cl)c1 [3-Chloro-4-fluorobenzoyl chloride]

>  <VALUE_MEASURED>
Inconclusive inhibitor

$$$$

What value of CYP2D6 AC50 (half-maximal activity concentration) on human CYP2D6 (Homo sapiens, UniProt P10635) does O=[N+]([O-])c1ccccc1-c1ccccc1 have?
Inactive

One more molecule: O=C(O)C[C@H](NC(=O)OCc1ccccc1)C(=O)O [N-[(Benzyloxy)carbonyl]-L-aspartic acid]
Inactive

* * *

biological target: UniProt:P33261; assay: biochemical; settings: CYP2C19 IC50 (half-maximal inhibitory concentration)
TEST_READOUT: pIC50
Scale for pIC50: -log10 of concentration given in mol/L; no unit attached.

>  <COMPOUND>
CCOP(=S)(OCC)SCn1nnc2ccccc2c1=O

>  <TEST_READOUT>
pIC50

>  <VALUE_MEASURED>
6.49

$$$$

Looking for the measured pIC50 of CCCCOCN(C(=O)CCl)c1c(CC)cccc1CC , can you help?
6.08

One more compound: CCOP(=S)(OCC)Oc1ccc(Cl)cc1Cl
6.36

* * *

biological target: CYP3A4 (Homo sapiens)
Sequence (P08684 whole entry): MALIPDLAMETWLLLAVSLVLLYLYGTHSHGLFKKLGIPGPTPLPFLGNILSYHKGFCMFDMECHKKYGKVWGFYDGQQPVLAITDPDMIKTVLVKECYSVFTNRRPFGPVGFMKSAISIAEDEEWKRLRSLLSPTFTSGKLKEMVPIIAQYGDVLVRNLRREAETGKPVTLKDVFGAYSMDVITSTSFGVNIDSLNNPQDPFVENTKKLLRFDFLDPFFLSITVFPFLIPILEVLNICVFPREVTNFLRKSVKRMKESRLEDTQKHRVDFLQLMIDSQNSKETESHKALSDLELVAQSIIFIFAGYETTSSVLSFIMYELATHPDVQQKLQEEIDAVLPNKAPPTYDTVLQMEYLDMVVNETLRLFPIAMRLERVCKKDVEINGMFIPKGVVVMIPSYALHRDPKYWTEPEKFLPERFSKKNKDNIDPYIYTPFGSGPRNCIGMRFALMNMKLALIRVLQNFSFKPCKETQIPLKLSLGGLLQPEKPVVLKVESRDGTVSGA
Response field label: string, one of Condition met (AC50 strictly below 20 µM) or Condition not met.

>  <COMPOUND>
CCOC(=O)N1CCC(n2c(=O)[nH]c3cc(Cl)ccc32)CC1

>  <ASSIGNED_CATEGORY>
Condition met

$$$$

Then this compound:
Hello, is AC50 of the following compound strictly smaller than 20 µM? CCCCCCCCCCCC(=O)O.OCCN(CCO)CCO [Triethanolamine Laurate]
Condition not met
